Exercise: state measured MIC for each of the molecules provided.
System: Shigella boydii
Assay: Antimicrobial activity against Shigella boydii ATCC 9207 after 18 to 24 hrs by microbroth dilution method
Assay type: functional
Provide only the numeric value, understood in µg/mL.

Req: # lookup: MIC of CCn1cc(C(=O)O)c(=O)c2cc(F)c(N3CCC(Br)CC3)c(F)c21
Resp: 1

Req: Also need CCn1cc(C(=O)O)c(=O)c2cc(F)c(N3CCN(c4ccc(F)cc4)CC3)c(F)c21 , thanks.
Resp: 2

Req: Also need CCn1cc(C(=O)O)c(=O)c2cc(F)c(N3CCC(NC)CC3)c(F)c21 , thanks.
Resp: 1

Req: Also need O=C(O)c1cn(C2CC2)c2cc(N3CCNCC3)c(F)cc2c1=O [CIPROFLOXACIN] , thanks.
Resp: 2.5

Req: Also need CCn1cc(C(=O)O)c(=O)c2cc(F)c(N3CCC(N4CCCCC4)CC3)c(F)c21 , thanks.
Resp: 1

Req: Also need CCn1cc(C(=O)O)c(=O)c2cc(F)c(N3CCC(CO)CC3)c(F)c21 , thanks.
Resp: 0.5

Req: Also need CCn1cc(C(=O)O)c(=O)c2cc(F)c(N3CCN(Cc4ccccc4)CC3)c(F)c21 , thanks.
Resp: 1.5

Req: Also need CCn1cc(C(=O)O)c(=O)c2cc(F)c(N3CCN(c4ccccc4F)CC3)c(F)c21 , thanks.
Resp: 2

Req: Also need CCn1cc(C(=O)O)c(=O)c2cc(F)c(N3CCN(c4cccc(Cl)c4Cl)CC3)c(F)c21 , thanks.
Resp: 1

Req: Also need CCn1cc(C(=O)O)c(=O)c2cc(F)c(N3CCN(c4ccccc4C#N)CC3)c(F)c21 , thanks.
Resp: 2

---

Exercise: state measured MIC for each of the compounds provided.
Test system: Proteus vulgaris
Assay: Antimicrobial activity against Proteus vulgaris ATCC 49132 after 18 to 24 hrs by microbroth dilution method
Assay type: functional
Provide only the numeric value, understood in µg/mL.

Req: # lookup: MIC of CCn1cc(C(=O)O)c(=O)c2cc(F)c(N3CCN(c4ccc(F)cc4)CC3)c(F)c21
Resp: 2.5

Req: Also need CCn1cc(C(=O)O)c(=O)c2cc(F)c(N3CCC(C)CC3)c(F)c21 , thanks.
Resp: 1

Req: Also need CCn1cc(C(=O)O)c(=O)c2cc(F)c(N3CCN(c4ccccc4C#N)CC3)c(F)c21 , thanks.
Resp: 1

Req: Also need CCn1cc(C(=O)O)c(=O)c2cc(F)c(N3CCN(c4ccccc4)CC3)c(F)c21 , thanks.
Resp: 1.5

Req: Also need CCn1cc(C(=O)O)c(=O)c2cc(F)c(N3CCN(c4ccccc4F)CC3)c(F)c21 , thanks.
Resp: 2.5

Req: Also need CCn1cc(C(=O)O)c(=O)c2cc(F)c(N3CCC(Br)CC3)c(F)c21 , thanks.
Resp: 2.5

Req: Also need CCn1cc(C(=O)O)c(=O)c2cc(F)c(N3CCC(N4CCCCC4)CC3)c(F)c21 , thanks.
Resp: 1.25

Req: Also need CCn1cc(C(=O)O)c(=O)c2cc(F)c(N3CCC(CO)CC3)c(F)c21 , thanks.
Resp: 1.25

Req: Also need CCn1cc(C(=O)O)c(=O)c2cc(F)c(N3CCN(c4cccc(Cl)c4Cl)CC3)c(F)c21 , thanks.
Resp: 2.5

Req: Also need CCn1cc(C(=O)O)c(=O)c2cc(F)c(N3CCC(NC)CC3)c(F)c21 , thanks.
Resp: 1.25

Req: Also need O=C(O)c1cn(C2CC2)c2cc(N3CCNCC3)c(F)cc2c1=O , thanks.
Resp: 3

Cited source: ChEMBL document CHEMBL1629487
